Reference for the values: patent US8956445B2

test: Solvation interaction parameters by inverse gas-liquid chromatography (Abraham solvation model); type: physicochemical; conditions: 40° C.
readout-kind: c (interaction parameter table, constant)
Answers are plain numbers.

Field: example entries. Status: answers known.
INSERT INTO assay_data (molecule, result_number) VALUES
  ('C[N+]1(CCCCCCCCC[N+]2(C)CCCC2)CCCC1.O=S(=O)([N-]S(=O)(=O)C(F)(F)F)C(F)(F)F.O=S(=O)([N-]S(=O)(=O)C(F)(F)F)C(F)(F)F [C9(mpy)2-NTf2]', '−2.83'),
  ('O=S(=O)([N-]S(=O)(=O)C(F)(F)F)C(F)(F)F.O=S(=O)([N-]S(=O)(=O)C(F)(F)F)C(F)(F)F.c1ccc(Cn2cc[n+](CCCCCCCCCCCC[n+]3ccn(Cc4ccccc4)c3)c2)cc1 [C12(benzim)2-NTf2]', '−2.94'),
  ('CCCCCCCCC[n+]1ccn(C)c1.O=S(=O)([N-]S(=O)(=O)C(F)(F)F)C(F)(F)F [nmim-NTf2]', '−2.98');

Each molecule below has a recorded value; state its c (interaction parameter table, constant).
1. Cn1cc[n+](CCCCCCCCC[n+]2ccn(C)c2)c1.O=S(=O)([N-]S(=O)(=O)C(F)(F)F)C(F)(F)F.O=S(=O)([N-]S(=O)(=O)C(F)(F)F)C(F)(F)F [C9(mim)2-NTf2]
2. C[n+]1ccn(CCCCn2cc[n+](C)c2)c1.O=S(=O)([N-]S(=O)(=O)C(F)(F)F)C(F)(F)F.O=S(=O)([N-]S(=O)(=O)C(F)(F)F)C(F)(F)F [C4(mim)2-NTf2]

−2.86
−2.94

---

Record form. Attribute: r (interaction via nonbonding and π-electrons). Fill in for each entry.
Test: Solvation interaction parameters by inverse gas-liquid chromatography (Abraham solvation model)
Format: physicochemical
Settings: 100° C.
Method: The preparation of the capillary columns for inverse gas-liquid chromatographic analysis was performed using a previously described procedure.^31 All capillary columns had efficiencies between 2100 to 2500 plates/meter. Characterization of the capillary columns and probe molecule descriptions are listed in supplemental information. Multiple linear regression analysis (MLRA) and statistical calculations were performed using the program Analyse-it (Microsoft, USA). […]
Numbers only.

Field: example entries. Status: answers known.
INSERT INTO measurements (mol_smiles, result_number) VALUES
  ('CCCCCCCCC[n+]1ccn(C)c1.O=S(=O)([N-]S(=O)(=O)C(F)(F)F)C(F)(F)F', 0),
  ('O=S(=O)([N-]S(=O)(=O)C(F)(F)F)C(F)(F)F.O=S(=O)([N-]S(=O)(=O)C(F)(F)F)C(F)(F)F.c1ccc(Cn2cc[n+](CCCCCCCCCCCC[n+]3ccn(Cc4ccccc4)c3)c2)cc1', 0),
  ('C[N+]1(CCCCCCCCC[N+]2(C)CCCC2)CCCC1.O=S(=O)([N-]S(=O)(=O)C(F)(F)F)C(F)(F)F.O=S(=O)([N-]S(=O)(=O)C(F)(F)F)C(F)(F)F', 0.23),
  ('Cn1cc[n+](CCCCCCCCC[n+]2ccn(C)c2)c1.O=S(=O)([N-]S(=O)(=O)C(F)(F)F)C(F)(F)F.O=S(=O)([N-]S(=O)(=O)C(F)(F)F)C(F)(F)F', 0.11);

Let us examine a further case.
What value of r (interaction via nonbonding and π-electrons) has been recorded for this entry: C[n+]1ccn(CCCCn2cc[n+](C)c2)c1.O=S(=O)([N-]S(=O)(=O)C(F)(F)F)C(F)(F)F.O=S(=O)([N-]S(=O)(=O)C(F)(F)F)C(F)(F)F
0.20

---

assay: Solvation interaction parameters by inverse gas-liquid chromatography (Abraham solvation model); type: physicochemical; details: 70° C.
Lab note: cut-off is 0.2. Strictly less in b (hydrogen bond acidity) is Fulfilled. Exactly 0.2 or more is Not fulfilled.

Here's what some known entries look like.
INSERT INTO assay_data (mol_smiles, answer_label) VALUES
  ('C[n+]1ccn(CCCCn2cc[n+](C)c2)c1.O=S(=O)([N-]S(=O)(=O)C(F)(F)F)C(F)(F)F.O=S(=O)([N-]S(=O)(=O)C(F)(F)F)C(F)(F)F', 'Not fulfilled'),
  ('O=S(=O)([N-]S(=O)(=O)C(F)(F)F)C(F)(F)F.O=S(=O)([N-]S(=O)(=O)C(F)(F)F)C(F)(F)F.c1ccc(Cn2cc[n+](CCCCCCCCCCCC[n+]3ccn(Cc4ccccc4)c3)c2)cc1', 'Not fulfilled'),
  ('C[N+]1(CCCCCCCCC[N+]2(C)CCCC2)CCCC1.O=S(=O)([N-]S(=O)(=O)C(F)(F)F)C(F)(F)F.O=S(=O)([N-]S(=O)(=O)C(F)(F)F)C(F)(F)F', 'Not fulfilled');

Now consider a different compound.
Just wondering, is b (hydrogen bond acidity) of CCCCCCCCC[n+]1ccn(C)c1.O=S(=O)([N-]S(=O)(=O)C(F)(F)F)C(F)(F)F below 0.2?
Fulfilled

---

conditions: water
readout-kind: Miscibility with Water

Field: example entries. Status: answers known.
INSERT INTO measurements (mol_smiles, result) VALUES
  ('Cc1n(C)cc[n+]1CCCCCCCCC[n+]1ccn(C)c1C.F[B-](F)(F)F.F[B-](F)(F)F', 'Miscible'),
  ('C[n+]1ccn(CCCCCCn2cc[n+](C)c2)c1.F[B-](F)(F)F.F[B-](F)(F)F', 'Miscible'),
  ('Cc1n(C)cc[n+]1CCCCCCCCC[n+]1ccn(C)c1C.[Br-].[Br-]', 'Miscible'),
  ('Cn1cc[n+](CCCCCC[n+]2ccn(C)c2)c1.O=S(=O)([N-]S(=O)(=O)C(F)(F)F)C(F)(F)F.O=S(=O)([N-]S(=O)(=O)C(F)(F)F)C(F)(F)F', 'Immiscible'),
  ('O=S(=O)([N-]S(=O)(=O)C(F)(F)F)C(F)(F)F.O=S(=O)([N-]S(=O)(=O)C(F)(F)F)C(F)(F)F.c1ccc(Cn2cc[n+](CCCCCCCCCCCC[n+]3ccn(Cc4ccccc4)c3)c2)cc1', 'Immiscible');

Let us examine a further case.
What value of Miscibility with Water has been recorded for this entry: Cc1n(C)cc[n+]1CCCCCCCCC[n+]1ccn(C)c1C.F[P-](F)(F)(F)(F)F.F[P-](F)(F)(F)(F)F
Immiscible

---

assay: Refractive index (Abbe-3L refractometer); assay type: physicochemical; settings: 23° C.
Record form. Attribute: Refractive Index. Fill in for each entry.
One number for each entry.

Each molecule below has a recorded value; state its Refractive Index.
1. Cc1n(C)cc[n+]1CCCCCCCCC[n+]1ccn(C)c1C.O=S(=O)([N-]S(=O)(=O)C(F)(F)F)C(F)(F)F.O=S(=O)([N-]S(=O)(=O)C(F)(F)F)C(F)(F)F
2. O=S(=O)([N-]S(=O)(=O)C(F)(F)F)C(F)(F)F.O=S(=O)([N-]S(=O)(=O)C(F)(F)F)C(F)(F)F.c1ccc(Cn2cc[n+](CCCCCCCCCCCC[n+]3ccn(Cc4ccccc4)c3)c2)cc1
3. C=Cn1cc[n+](CCCCCCCCC[n+]2ccn(C=C)c2)c1.O=S(=O)([N-]S(=O)(=O)C(F)(F)F)C(F)(F)F.O=S(=O)([N-]S(=O)(=O)C(F)(F)F)C(F)(F)F

1: 1.448; 2: 1.482; 3: 1.457

---

assay: Solvation interaction parameters by inverse gas-liquid chromatography (Abraham solvation model); assay type: physicochemical; details: 70° C.
Record form. Attribute: s (dipolarity/polarizability). Fill in for each entry.

INSERT INTO assay_data (mol_smiles, readout_kind, result) VALUES
  ('CCCCCCCCC[n+]1ccn(C)c1.O=S(=O)([N-]S(=O)(=O)C(F)(F)F)C(F)(F)F', 's (dipolarity/polarizability)', 1.54),
  ('C[N+]1(CCCCCCCCC[N+]2(C)CCCC2)CCCC1.O=S(=O)([N-]S(=O)(=O)C(F)(F)F)C(F)(F)F.O=S(=O)([N-]S(=O)(=O)C(F)(F)F)C(F)(F)F', 's (dipolarity/polarizability)', 1.52),
  ('Cn1cc[n+](CCCCCCCCC[n+]2ccn(C)c2)c1.O=S(=O)([N-]S(=O)(=O)C(F)(F)F)C(F)(F)F.O=S(=O)([N-]S(=O)(=O)C(F)(F)F)C(F)(F)F', 's (dipolarity/polarizability)', 1.76),
  ('C[n+]1ccn(CCCCn2cc[n+](C)c2)c1.O=S(=O)([N-]S(=O)(=O)C(F)(F)F)C(F)(F)F.O=S(=O)([N-]S(=O)(=O)C(F)(F)F)C(F)(F)F', 's (dipolarity/polarizability)', 1.78);

What value of s (dipolarity/polarizability) has been recorded for this entry: O=S(=O)([N-]S(=O)(=O)C(F)(F)F)C(F)(F)F.O=S(=O)([N-]S(=O)(=O)C(F)(F)F)C(F)(F)F.c1ccc(Cn2cc[n+](CCCCCCCCCCCC[n+]3ccn(Cc4ccccc4)c3)c2)cc1
1.62
